- System: HL-60(TB) leukemia
- Procedure Summary: NCI tumour cell line growth inhibition, 48 h
I'd be grateful if you could share measured TGI for these entries.

List reported TGI for each of these molecules:
1. CCCCCCc1cc(C(=O)Nc2ccc(Cl)cc2)nc(=S)[nH]1
2. Nc1ccc(Cc2c(N)[nH]c(=O)[nH]c2=O)cc1

(A)
1. > 100 µM
2. > 100 µM

----------
- Tested on: COLO 205 colon
- Procedure Summary: NCI tumour cell line growth inhibition, 48 h
I'd be grateful if you could share measured GI50 for these entries.

For orientation, consider the following solved cases.
| Mol Smiles | Value Measured |
| --- | --- |
| COc1cc2ncnc(-n3ncc4cc(NC(=O)Nc5ccccc5)ccc43)c2cc1OC | 1.32 µM |
| CCNCCNc1cc(-c2ccc(C(F)(F)F)cc2)c(C#N)c2nc3ccccc3n12 | 1.01 µM |

Give me GI50 for each of these molecules, listed below.
1. NC(=O)c1cc(Cl)ccc1NC(=O)/C=C/c1ccccc1
2. C=C1C(=O)O[C@H]2[C@H]1CC/C(COC(=O)NCCCCNC(=O)OC/C1=C/CC[C@@]3(C)O[C@H]3[C@H]3OC(=O)C(=C)[C@@H]3CC1)=C\CC[C@@]1(C)O[C@@H]21

(A)
1: 2.16 µM; 2: 0.466 µM

----------
- System: UO-31 renal
- Procedure Summary: NCI tumour cell line growth inhibition, 48 h
For each of the compounds below, state its TGI.

Recorded results for 5 compounds are shown here.
| Compound | TGI |
| --- | --- |
| COc1cc(Cc2nccc3cc(OC)c(OC)cc23)c(C(C)=O)cc1OC | > 750 µM |
| CCCc1c(O)nc(Nc2nc3ccccc3[nH]2)[nH]c1=O | > 100 µM |
| CCC(C)NC1=NCC(C)S1 (centres undefined) | > 100 µM |
| O=C(NC(Cc1ccccc1)(Cc1ccc(O)cn1)C(=O)O)c1ccccc1 (centres undefined) | > 100 µM |
| COC(=O)CC1N=C(NC#N)N(CCc2c[nH]c3ccccc23)C1=O (centres undefined) | > 100 µM |

Could you report TGI for every entry in the following list?
1. C(/C=C/Nc1ccc(Oc2ccccc2)cc1)=Nc1ccc(Oc2ccccc2)cc1
2. Nc1nc(-[n+]2ccc(-c3ccncc3)cc2)nc(Cl)c1Cl
3. CC(C)=CCC(O)[C@](C)(O)[C@H]1[C@H](O)C[C@@]2(C)[C@@H]3CCc4cc(O)c(OC5OC(CO)C(O)C(O)C5O)cc4C3(C)C(=O)C[C@]12C (some centres undefined)
4. O=C(c1ccco1)N(C(=S)OCCOc1ccccc1)c1ccccc1

(A)
35 µM
> 100 µM
> 100 µM
35.5 µM

----------
For each of the molecules below, state its TGI.
- Test system: MOLT-4 leukemia
- Procedure Summary: NCI tumour cell line growth inhibition, 48 h

Worked examples follow.
| Mol Smiles | Value Measured |
| --- | --- |
| COc1cc(OC)c(C(=O)/C=C/c2cccc(C(F)(F)F)c2)c(OC)c1 | 3.75 µM |
| O=C(CCc1nc(=S)[nH][nH]1)Nc1ccccc1Cl | > 100 µM |
| COC(=O)Nc1nc2ccc(C3(c4ccc(F)cc4)OCCO3)cc2[nH]1 | > 100 µM |

Log: MOLT-4 leukemia, molecule CNC(=S)/N=C(\N)N(C)C , TGI = > 100 µM
